Measured IC50, listed per entry for reference.
Molecular target: recombinant JAK1 (amino acids 866-1154) (Homo sapiens (Human), UniProt P23458)
Sequence (P23458 866-1154): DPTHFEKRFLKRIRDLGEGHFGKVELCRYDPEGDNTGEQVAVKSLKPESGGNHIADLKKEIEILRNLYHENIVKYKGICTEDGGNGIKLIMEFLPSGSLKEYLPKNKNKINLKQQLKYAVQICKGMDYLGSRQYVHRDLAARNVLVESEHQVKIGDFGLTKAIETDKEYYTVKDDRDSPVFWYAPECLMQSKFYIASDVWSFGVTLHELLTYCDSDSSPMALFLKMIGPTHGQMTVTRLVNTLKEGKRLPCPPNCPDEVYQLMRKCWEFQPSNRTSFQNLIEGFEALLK
Assay: Enzyme inhibition studies, JAK1 (peptide phosphorylation, Caliper LC3000)
Conditions: ATP concentration not given (assayed at ATP Km 55 μM and at 5 mM)
Protocol: Enzyme inhibition studies were performed using recombinant JAK1 (amino acids 866-1154, Life Technologies, #PV4774, Carlsbad, Calif.), JAK2 (amino acids 831-1132), or JAK3 (amino acids 781-1124) under buffer conditions of 50 mM HEPES pH 7.3, 1 mM DTT, 0.01% Tween® 20, 50 μg/mL BSA, and 10 mM MgCl2. JAK enzyme was expressed as an N-terminal GST fusion in insect cells and purified by glutathione-affinity and size-exclusion chromatographies. […]

MOLECULE: COc1nn(C)cc1Nc1ncc(Br)c(-c2c[nH]c3c(NC(=O)[C@@H](C)N4CCN(C)CC4)cccc23)n1 [Example 37]
MEASUREMENT_UNITS: nM
INEQUALITY_SYMBOL: =
IC50: 8

MOLECULE: CCc1nn(C)cc1Nc1ncc(C)c(-c2c[nH]c3c(NC(=O)[C@@H](C)N4CCN(C)CC4)cccc23)n1 [Example 55]
MEASUREMENT_UNITS: nM
INEQUALITY_SYMBOL: =
IC50: 27

MOLECULE: CCOc1nn(C)cc1Nc1ncc(Cl)c(-c2c[nH]c3c(NC(=O)[C@@H](C)N4CCN(C)CC4)cccc23)n1 [Example 40]
MEASUREMENT_UNITS: nM
INEQUALITY_SYMBOL: =
IC50: 24

MOLECULE: COc1nn(C)cc1Nc1ncc(C)c(-c2c[nH]c3c(NC(=O)[C@@H](C)N4CCN(C)CC4)cccc23)n1 [Example 34]
MEASUREMENT_UNITS: nM
INEQUALITY_SYMBOL: =
IC50: 10

MOLECULE: COc1nn(C)cc1Nc1ncc(C)c(-c2c[nH]c3c(NC(=O)[C@@H](C)N4CCN(C)[C@@H](C)C4)cccc23)n1 [Example 14]
MEASUREMENT_UNITS: nM
INEQUALITY_SYMBOL: =
IC50: 9

MOLECULE: CCOc1nn(C)cc1Nc1ncc(F)c(-c2c[nH]c3c(NC(=O)[C@H](C)N4CCN(C)[C@@H](C)C4)cccc23)n1 [Example 11b]
MEASUREMENT_UNITS: nM
INEQUALITY_SYMBOL: =
IC50: 1850

MOLECULE: CCOc1nn(C)cc1Nc1ncc(F)c(-c2c[nH]c3c(NC(=O)[C@@H](C)N4CCN(CC)CC4)cccc23)n1 [Example 8]
MEASUREMENT_UNITS: nM
INEQUALITY_SYMBOL: =
IC50: 110

MOLECULE: CCOc1nn(C)cc1Nc1ncc(C)c(-c2c[nH]c3c(NC(=O)[C@@H](C)N4CCN(C)CC4)cccc23)n1 [Example 35]
MEASUREMENT_UNITS: nM
INEQUALITY_SYMBOL: =
IC50: 20

MOLECULE: Cc1nn(C)cc1Nc1nccc(-c2c[nH]c3c(NC(=O)[C@@H](C)N4CCN(C)CC4)cccc23)n1 [Example 57]
MEASUREMENT_UNITS: nM
INEQUALITY_SYMBOL: =
IC50: 69

MOLECULE: CCOc1nn(C)cc1Nc1ncc(F)c(-c2c[nH]c3c(NC(=O)[C@@H](C)N4CCN(C)C[C@@H]4C)cccc23)n1 [Example 10a]
MEASUREMENT_UNITS: nM
INEQUALITY_SYMBOL: =
IC50: 846

MOLECULE: COc1nn(C)cc1Nc1ncc(F)c(-c2c[nH]c3c(NC(=O)[C@@H](C)N4CCN(C)C[C@@H]4C)cccc23)n1 [Example 7a]
MEASUREMENT_UNITS: nM
INEQUALITY_SYMBOL: =
IC50: 359

MOLECULE: COc1nn(C)cc1Nc1ncc(C)c(-c2c[nH]c3c(NC(=O)[C@H](C)N4CCN(C)CC4)cccc23)n1 [Example 33]
MEASUREMENT_UNITS: nM
INEQUALITY_SYMBOL: =
IC50: 272

MOLECULE: COc1nn(C)cc1Nc1nccc(-c2c[nH]c3c(NC(=O)[C@@H](C)N4CCN(C)CC4)cccc23)n1 [Example 32]
MEASUREMENT_UNITS: nM
INEQUALITY_SYMBOL: =
IC50: 73

MOLECULE: CC[C@H](C(=O)Nc1cccc2c(-c3nc(Nc4cn(C)nc4C)ncc3F)c[nH]c12)N1CCN(C)CC1 [Example 49]
MEASUREMENT_UNITS: nM
INEQUALITY_SYMBOL: <
IC50: 4

MOLECULE: COc1nn(C)cc1Nc1ncc(C)c(-c2c[nH]c3c(NC(=O)[C@@H](C)N4CCN(C)C[C@@H]4C)cccc23)n1 [Example 19]
MEASUREMENT_UNITS: nM
INEQUALITY_SYMBOL: =
IC50: 296

MOLECULE: CCOc1nn(C)cc1Nc1ncc(F)c(-c2c[nH]c3c(NC(=O)[C@@H](C)N4CCN(CCOC)CC4)cccc23)n1 [Example 9]
MEASUREMENT_UNITS: nM
INEQUALITY_SYMBOL: =
IC50: 426

MOLECULE: CCOc1nn(C)cc1Nc1ncc(F)c(-c2c[nH]c3c(NC(=O)[C@@H](C)N4CCN(C)[C@@H](C)C4)cccc23)n1 [Example 11a]
MEASUREMENT_UNITS: nM
INEQUALITY_SYMBOL: =
IC50: 40

MOLECULE: COc1nn(C)cc1Nc1ncc(F)c(-c2c[nH]c3c(NC(=O)[C@@H](C)N4CCN(C)CC4)cccc23)n1 [Example 25]
MEASUREMENT_UNITS: nM
INEQUALITY_SYMBOL: =
IC50: 19

MOLECULE: CCOc1nn(C)cc1Nc1ncc(C)c(-c2c[nH]c3c(NC(=O)[C@@H](C)N4CCN(C)C[C@@H]4C)cccc23)n1 [Example 22]
MEASUREMENT_UNITS: nM
INEQUALITY_SYMBOL: =
IC50: 490

MOLECULE: Cc1cnc(Nc2cn(C)nc2C)nc1-c1c[nH]c2c(NC(=O)[C@H](C)N3CCN(C)CC3)cccc12 [Example 42]
MEASUREMENT_UNITS: nM
INEQUALITY_SYMBOL: =
IC50: 106

MOLECULE: CC[C@H](C(=O)Nc1cccc2c(-c3nc(Nc4cn(C)nc4OC)ncc3C)c[nH]c12)N1CCN(C)CC1 [Example 44]
MEASUREMENT_UNITS: nM
INEQUALITY_SYMBOL: <
IC50: 4

MOLECULE: CCOc1nn(C)cc1Nc1ncc(F)c(-c2c[nH]c3c(NC(=O)[C@H](C)N4CCN(C)C[C@@H]4C)cccc23)n1 [Example 10b]
MEASUREMENT_UNITS: nM
INEQUALITY_SYMBOL: =
IC50: 7600

MOLECULE: COC[C@@H](C(=O)Nc1cccc2c(-c3nc(Nc4cn(C)nc4OC)ncc3C)c[nH]c12)N1CCN(C)CC1 [Example 46]
MEASUREMENT_UNITS: nM
INEQUALITY_SYMBOL: =
IC50: 986

MOLECULE: CCOc1nn(C)cc1Nc1ncc(C)c(-c2c[nH]c3c(NC(=O)[C@@H](C)N4CCN(C)[C@@H](C)C4)cccc23)n1 [Example 31a]
MEASUREMENT_UNITS: nM
INEQUALITY_SYMBOL: =
IC50: 15

MOLECULE: COCCN1CCN([C@H](C)C(=O)Nc2cccc3c(-c4nc(Nc5cn(C)nc5OC)ncc4C)c[nH]c23)CC1 [Example 17]
MEASUREMENT_UNITS: nM
INEQUALITY_SYMBOL: =
IC50: 107

MOLECULE: CCOc1nn(C)cc1Nc1ncc(F)c(-c2c[nH]c3c(NC(=O)[C@@H](C)N4CCN(C)C[C@H]4C)cccc23)n1 [Example 12]
MEASUREMENT_UNITS: nM
INEQUALITY_SYMBOL: =
IC50: 68

MOLECULE: CCOc1nn(C)cc1Nc1ncc(C)c(-c2c[nH]c3c(NC(=O)[C@@H](C)N4CCN(CCOC)CC4)cccc23)n1 [Example 21]
MEASUREMENT_UNITS: nM
INEQUALITY_SYMBOL: =
IC50: 184

Measured values drawn from patent US9714236B2 for this set.
